Taken from PubChem BioAssay (NCI).

# Measurement description: NCI Yeast Anticancer Drug Screen. Data for the mlh1 rad18 strain (AID 175)
# Stated conditions: S. cerevisiae mlh1 rad18 strain growth inhibition; at 50.0 µM; active compounds read high
Compounds without any hit were thinned out: in the full panel of roughly 79,000, 15% have a hit.
Assay metric: growth inhibition (%)
Numbers only, in %.

Please state, for each entry, its recorded growth inhibition.
1. C[N+](C)(C)C(Cc1c[nH]c(=S)[nH]1)C(=O)O (stereo not given)
2. CCC(CCC(C)C1CCC2C3CC=C4CC(OC(=O)Nc5ccccc5)CCC4(C)C3CCC12C)C(C)C (stereo not given)
3. Nc1nc(C2CCCCC2)cc(=O)[nH]1
4. COc1ccccc1C=Nc1ccc(O)cc1
5. COC(=O)NCP(=O)(CNC(=O)OC)CNC(=O)OC

1. -20.4
2. -26.4
3. -0.65
4. 37.5
5. 10.7
